- Test system: HS 578T breast
- EXPERIMENT NOTES: NCI tumour cell line growth inhibition, 48 h
MEASUREMENT KIND: TGI

Fill blank: measured TGI of the compound COc1ccc2nc3cc(Cl)ccc3c(NCCCN(C)CCCNc3ccc4ncn5c6ccccc6c(=O)c3c45)c2c1 is ____. > 19.5 µM

Fill blank: measured TGI of the compound CCOC(=O)c1nc2ccccc2nc1Oc1ccc(F)cc1 is ____. > 100 µM

Fill blank: measured TGI of the compound O=C(N=Nc1c(O)[nH]c2c(Cl)cc(Cl)cc12)C(=O)Nc1cccc(C(F)(F)F)c1 is ____. > 100 µM

Fill blank: measured TGI of the compound COc1cc(Nc2nc(NS(=O)(=O)c3cc(C)c(Cl)cc3S)n[nH]2)cc(OC)c1OC is ____. > 100 µM

Fill blank: measured TGI of the compound CC(C)c1cc(C(C)C)c(S(=O)(=O)N/N=C2\CC3CCC2(C)C3(C)C)c(C(C)C)c1 (stereo not given) is ____. > 100 µM

---

- System: SNB-75 CNS
- EXPERIMENT NOTES: NCI tumour cell line growth inhibition, 48 h
Would you kindly list TGI for each of these molecules?

Fill blank: measured TGI of the molecule C/C(=N\NC(N)=O)C(CN1CCOCC1)C(c1ccccc1)c1c(O)c2ccccc2oc1=O (stereo not drawn) is ____. > 100 µM

Fill blank: measured TGI of the molecule CC1(C)N=C(N)N=C(N)N1c1cccc(CC(=O)Nc2ccccc2)c1 is ____. > 100 µM

Fill blank: measured TGI of the molecule CCOC(=O)c1nc2ccccc2nc1Oc1ccc(F)cc1 is ____. > 100 µM

---

Would you kindly list TGI for each of these compounds?
- Test system: HCT-15 colon
- EXPERIMENT NOTES: NCI tumour cell line growth inhibition, 48 h

Fill blank: measured TGI of the compound N#CCC1CCN(c2nc(Nc3ccc(N4CCC(O)CC4)cc3)c3c(=O)[nH]ncc3n2)CC1 is ____. > 100 µM

Fill blank: measured TGI of the compound C=C(C)[C@@H]1CC[C@]2(C(=O)OC)CC[C@]3(C)[C@H](CC[C@@H]4[C@@]5(C)CC/C(=N\OCCC(=NCCC#N)NOCCC#N)C(C)(C)[C@@H]5CC[C@]43C)[C@@H]12 is ____. > 50 µM

Fill blank: measured TGI of the compound COc1ccc(CCN2C(=O)C(=O)C(C(=O)c3ccccc3)C2c2ccccc2)cc1OC (stereo not given) is ____. > 100 µM

Fill blank: measured TGI of the compound CC12CCC(C(=Nc3ccc([N+](=O)[O-])cc3)C1=O)C2(C)C (stereo not given) is ____. > 100 µM

Fill blank: measured TGI of the compound COc1ccc2nc3cc(Cl)ccc3c(NCCCN(C)CCCNc3ccc4ncn5c6ccccc6c(=O)c3c45)c2c1 is ____. > 9.4 µM

---

- Tested on: MALME-3M melanoma
- EXPERIMENT NOTES: NCI tumour cell line growth inhibition, 48 h
Would you kindly list TGI for each of these compounds?
Dear colleague, please return just the value in µM, with no unit written.

Could you share what TGI was measured for COc1cc2nc(NC3CCC3)nc(NC3CCN(C(C)C)CC3)c2cc1OC , tested on MALME-3M melanoma? 3.23

Could you share what TGI was measured for CC1(C)CC[C@]2(C(=O)O)CC[C@]3(C)C(=CC[C@@H]4[C@@]5(C)C/C(=C/c6cccnc6)[C@H](O)C(C)(C)[C@@H]5CC[C@]43C)[C@@H]2C1 , tested on MALME-3M melanoma? 36.2

Could you share what TGI was measured for Fc1cnccc1-c1nc2ccc3[nH]ncc3c2c2c1CCCC2 , tested on MALME-3M melanoma? 9.06

---

- Test system: LOX IMVI melanoma
- EXPERIMENT NOTES: NCI tumour cell line growth inhibition, 48 h; in the data active = GI50 below about 0.43 µM; inactive = the rest
// classify into active, inactive

Hey, what did the test say about Cc1ccc(CNc2ccc(Cl)cc2NCc2ccc(C)c(O)c2)cc1O ? inactive

Hey, what did the test say about CCN(CC)CCCC(C)Nc1ccnc2cc(OC)ccc12 (centres undefined) ? inactive

Hey, what did the test say about CN(C)CCCn1c2c(c3ccc(N4CCNCC4)cc3c1=O)C(=O)c1ccccc1-2 ? active

Hey, what did the test say about Cc1n[nH]c(C)c1-c1c(C)n[nH]c1C ? inactive

Hey, what did the test say about Nc1ncnc2c1ncn2C1SC(CO)C(O)C1O (centres undefined) ? inactive

Hey, what did the test say about O=c1c2cc(F)ccc2sc2c(NCCCNCCO)nc3ccc(F)cc3c12 ? inactive

Hey, what did the test say about C=C(C)[C@@H]1CC[C@]2(C(=O)OC)CC[C@]3(C)[C@H](CC[C@@H]4[C@@]5(C)CC/C(=N\OCCC(=NCCC#N)NOCCC#N)C(C)(C)[C@@H]5CC[C@]43C)[C@@H]12 ? inactive

Hey, what did the test say about COc1cc(/C=C2\C(=O)Nc3ccc(O)cc32)cc(OC)c1OC ? inactive

Hey, what did the test say about CCc1ccc2cc3c(ccc4ccccc43)c3c2c1CC3 ? inactive

---

- Test system: SW-620 colon
- EXPERIMENT NOTES: NCI tumour cell line growth inhibition, 48 h
MEASUREMENT KIND: TGI

Fill blank: measured TGI of the molecule CCN(CC)CCN1C(=O)c2cccc3cc(N)cc(c23)C1=O is ____. 83.3 µM

Fill blank: measured TGI of the molecule Cc1cccc2c(=O)c3cccc(CC(=O)O)c3oc12 is ____. > 100 µM

Fill blank: measured TGI of the molecule O=P(c1ccccc1)(c1ccccc1)C1CC=C2CCCCCC2C1 (stereo unspecified) is ____. > 10 µM

Fill blank: measured TGI of the molecule C/C=C/C(C/C=C(\C)CO[Si](C)(C)C(C)(C)C)O[Si](C)(C)C(C)(C)C (stereo unspecified) is ____. > 100 µM

Fill blank: measured TGI of the molecule CSC(SC)=C1Sc2cccc(Cl)c2S1 is ____. > 100 µM

Fill blank: measured TGI of the molecule N#CSc1c[nH]c2cccc(/C=C/C(=O)/C=C(O)/C=C/c3cccc4[nH]cc(SC#N)c34)c12 is ____. 0.555 µM

Fill blank: measured TGI of the molecule O=C1OCC2=C1C(c1ccc(Cl)cc1)c1cc3c(cc1O2)OCO3 (stereo unspecified) is ____. > 100 µM

Fill blank: measured TGI of the molecule CCCCCCCCCCCCOC(=N)N1CCOCC1 is ____. 16.6 µM

Fill blank: measured TGI of the molecule N#Cc1nc(CCC(C(=O)O)N2C(=O)c3ccccc3C2=O)oc1N (stereo unspecified) is ____. > 100 µM

Fill blank: measured TGI of the molecule O=[N+]([O-])c1ccc(-c2ccc([C@H]3CC(c4cc(F)c(Cl)cc4Cl)=NN3)o2)cc1 is ____. > 100 µM

Fill blank: measured TGI of the molecule COc1ccc2c(c1)c(-c1nc(-c3cn(C)c4ncccc34)cs1)cn2CCCCN1CCCCC1 is ____. 2.99 µM

Fill blank: measured TGI of the molecule CC(=O)OCCn1c(Cc2ccc(Cl)cc2)nn(C(C)=O)c1=O is ____. > 100 µM

Fill blank: measured TGI of the molecule COc1nc2c(c(=O)[nH]1)N=C(c1ccc([N+](=O)[O-])cc1)CC(c1ccccc1)N2 (stereo unspecified) is ____. > 100 µM

Fill blank: measured TGI of the molecule C=C1C(=O)O[C@H]2[C@@H]3O[C@@](C)(CC/C=C(\C)CCC[C@@H]2C)[C@H](O)C[C@@H]13 is ____. > 100 µM

Fill blank: measured TGI of the molecule COc1cc(/C=C2\C(=O)Nc3ccc(O)cc32)cc(OC)c1OC is ____. > 100 µM

Fill blank: measured TGI of the molecule O=C(/C=C/c1c[nH]c2ccccc12)c1ccccc1O is ____. 59.7 µM

Fill blank: measured TGI of the molecule CC(=O)OCC1OC(Sc2nc(-c3ccccc3)c(C#N)c(=O)n2C2OC(COC(C)=O)C(OC(C)=O)C(OC(C)=O)C2OC(C)=O)C(OC(C)=O)C(OC(C)=O)C1OC(C)=O (stereo unspecified) is ____. > 100 µM

Fill blank: measured TGI of the molecule CCOC(=O)c1cn2c(n1)sc1cc([N+](=O)[O-])ccc12 is ____. > 100 µM

Fill blank: measured TGI of the molecule CC(=O)[O-].O=C([CH-]C(=O)c1ccccc1)c1ccccc1.O=C([CH-]C(=O)c1ccccc1)c1ccccc1.[Dy+3] is ____. > 100 µM

Fill blank: measured TGI of the molecule CC1(C)OC2OC(/C=C/[N+](=O)[O-])C3OC(C)(C)OC3C2O1 (stereo unspecified) is ____. 9.46 µM

Fill blank: measured TGI of the molecule CC[C@H]1CNC(=O)CC1CC(=O)OC (stereo partly specified) is ____. > 100 µM

Fill blank: measured TGI of the molecule COc1ccc2c(c1)SC1=Nc3sc4cc(OC)ccc4[n+]3CN12 is ____. > 100 µM

Fill blank: measured TGI of the molecule CCO/C=N\C1=C(C#N)SC2=N/C(=C\c3ccco3)C(=O)N21 is ____. > 100 µM

Fill blank: measured TGI of the molecule O=C(c1ccco1)c1c(C(F)(F)F)n([O-])c2cc(Cl)c(Cl)cc2[n+]1=O is ____. 2.48 µM

Fill blank: measured TGI of the molecule CCOc1ccc(/C=C/C(=O)c2sc(NNC(C)=O)nc2C)cc1 is ____. > 100 µM

Fill blank: measured TGI of the molecule CS(=O)(=O)Sc1ccc(Cl)cc1 is ____. 25.3 µM

Fill blank: measured TGI of the molecule O=C(CC1(O)C(=O)Nc2ccc(Br)cc21)c1cccc([N+](=O)[O-])c1 (stereo unspecified) is ____. > 100 µM

Fill blank: measured TGI of the molecule COc1ccc(CC(COS(=O)(=O)c2ccc(C)cc2)NS(=O)(=O)c2ccc(C)cc2)cc1 (stereo unspecified) is ____. 27 µM

Fill blank: measured TGI of the molecule O=c1[nH]c2c(ccc3cnccc32)c2c1CCC2 is ____. 1.84 µM

Fill blank: measured TGI of the molecule C[N+](C)(C)CC(=O)N/N=C\c1c(O)ccc2ccccc12 is ____. > 100 µM

Fill blank: measured TGI of the molecule CCOC(=O)n1c(=O)nc2c3c(ncn21)Oc1c(c(-c2ccccc2)nn1-c1ccccc1)C3c1ccc(Cl)cc1 (stereo unspecified) is ____. 3.09 µM

Fill blank: measured TGI of the molecule N#Cc1cccc(C2SCc3nc4ccccc4n32)c1 (stereo unspecified) is ____. > 100 µM

Fill blank: measured TGI of the molecule Nc1nc(NCc2ccccc2)cc(NCc2ccccc2)n1 is ____. > 100 µM

Fill blank: measured TGI of the molecule CC12CCC(C(=Nc3ccc([N+](=O)[O-])cc3)C1=O)C2(C)C (stereo unspecified) is ____. 98.4 µM

Fill blank: measured TGI of the molecule NS(=O)(=O)c1ccc(NNc2c3ccccc3nc3c(C(=O)Nc4ccc(S(N)(=O)=O)cc4)cccc23)cc1 is ____. > 100 µM

Fill blank: measured TGI of the molecule CC(=O)OC(C(=O)NNC(=O)OC(C)(C)C)c1ccccc1 (stereo unspecified) is ____. > 100 µM
